- experimentSummary: Octanol-water distribution coefficient (LogD)
- Format: physicochemical
- protocolConditions: n-octanol/PBS; n = 3; mean ± sd
- Description: Octanol-water distribution coefficient (LogD) was determined by adding 10 pmol of radiopeptide to an Eppendorf tube containing 500 µL of phosphate-buffered saline (PBS) and 500 µL of n-octanol. Each tube was vortexed for 2 min and centrifuged at 6000 g for 5 min. Three 100 µL fractions were collected from each phase, and their radioactivity was measured.
Starred links: 1 amine or outer side, 2 acyl side, 3 side chain; linkers in the order of their positions; H or OH if unused. Non-standard residues stand in square brackets, D forms with d. Residues, ends and D or L forms follow the SMILES beside them. *: point of attachment. NOTA = O=C(O)CN1CCN(CC(=O)O)CCN(CC(=O)*)CC1; Sta = CC(C)C[C@H](N)[C@@H](O)CC(=O)O; X2 = O=C(COc1cccc(CN[*:1])c1)[*:2]; X1 = O=C(Cc1ccccc1CCN[*:1])[*:2]; X3 = O=C(COc1ccccc1CN[*:1])[*:2]
assayMetric: logD
# print the numeric value only

Below are worked cases with known answers.
INSERT INTO assay_data (compound, measuredresult) VALUES
  ('CC(=O)N[C@@H](CCCCNC(=O)CN1CCN(CC(=O)O)CCN(CC(=O)O)CC1)C(=O)NCc1cccc(OCC(=O)N[C@H](Cc2ccccc2)C(=O)N[C@@H](CCC(N)=O)C(=O)N[C@@H](Cc2c[nH]c3ccccc23)C(=O)N[C@@H](C)C(=O)N[C@H](C(=O)NCC(=O)N[C@@H](Cc2c[nH]cn2)C(=O)N[C@@H](CC(C)C)[C@@H](O)CC(=O)N[C@@H](CC(C)C)C(N)=O)C(C)C)c1 [[^68Ga]Ga-NOTA-mMA-RM26, metal not drawn] (Ac-K(NOTA)[X2][dF]QWAVGH[Sta]L-NH2)', -1.21),
  ('CC(=O)N[C@@H](CCCCNC(=O)CN1CCN(CC(=O)O)CCN(CC(=O)O)CC1)C(=O)NCc1ccccc1OCC(=O)N[C@H](Cc1ccccc1)C(=O)N[C@@H](CCC(N)=O)C(=O)N[C@@H](Cc1c[nH]c2ccccc12)C(=O)N[C@@H](C)C(=O)N[C@H](C(=O)NCC(=O)N[C@@H](Cc1c[nH]cn1)C(=O)N[C@@H](CC(C)C)[C@@H](O)CC(=O)N[C@@H](CC(C)C)C(N)=O)C(C)C [[^68Ga]Ga-NOTA-oMA-RM26, metal not drawn] (Ac-K(NOTA)[X3][dF]QWAVGH[Sta]L-NH2)', -0.86),
  ('CC(C)C[C@H](NC(=O)C[C@H](O)[C@H](CC(C)C)NC(=O)[C@H](Cc1c[nH]cn1)NC(=O)CNC(=O)[C@@H](NC(=O)[C@H](C)NC(=O)[C@H](Cc1c[nH]c2ccccc12)NC(=O)[C@H](CCC(N)=O)NC(=O)[C@@H](Cc1ccccc1)NC(=O)COCCOCCNC(=O)CN1CCN(CC(=O)O)CCN(CC(=O)O)CC1)C(C)C)C(N)=O [[^68Ga]Ga-NOTA-PEG2-RM26, metal not drawn]', -1.43);

# evaluate next
Determine from records and report logD for CC(=O)N[C@@H](CCCCNC(=O)CN1CCN(CC(=O)O)CCN(CC(=O)O)CC1)C(=O)NCCc1ccccc1CC(=O)N[C@H](Cc1ccccc1)C(=O)N[C@@H](CCC(N)=O)C(=O)N[C@@H](Cc1c[nH]c2ccccc12)C(=O)N[C@@H](C)C(=O)N[C@H](C(=O)NCC(=O)N[C@@H](Cc1c[nH]cn1)C(=O)N[C@@H](CC(C)C)[C@@H](O)CC(=O)N[C@@H](CC(C)C)C(N)=O)C(C)C [[^68Ga]Ga-NOTA-oET-RM26, metal not drawn] (Ac-K(NOTA)[X1][dF]QWAVGH[Sta]L-NH2)
-0.97
